Give measured pEC50 for each item. Keep answers brief.
Target: T1, human CD276 protein (human, UniProt Q5ZPR3 29-534)
T1 construct: whole, on cells; for SKOV3 and the other cancer lines the protein is the cells' own; also called B7-H3; B7H3
T1 sequence (looked up): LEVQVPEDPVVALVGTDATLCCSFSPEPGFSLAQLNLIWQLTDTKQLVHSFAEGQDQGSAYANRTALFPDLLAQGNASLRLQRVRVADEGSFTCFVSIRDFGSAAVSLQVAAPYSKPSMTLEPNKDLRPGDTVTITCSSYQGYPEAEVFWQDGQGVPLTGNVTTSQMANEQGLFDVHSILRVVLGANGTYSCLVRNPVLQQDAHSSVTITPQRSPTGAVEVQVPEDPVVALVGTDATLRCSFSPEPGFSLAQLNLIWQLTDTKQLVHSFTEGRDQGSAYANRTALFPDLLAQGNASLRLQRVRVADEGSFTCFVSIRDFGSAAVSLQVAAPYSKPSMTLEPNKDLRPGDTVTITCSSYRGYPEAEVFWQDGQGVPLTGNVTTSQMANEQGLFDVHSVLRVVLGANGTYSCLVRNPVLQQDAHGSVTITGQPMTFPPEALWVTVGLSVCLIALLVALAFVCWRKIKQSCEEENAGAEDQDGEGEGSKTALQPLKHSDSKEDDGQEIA
Assay: FACS titration on SKOV3 cells (MFI against Conc. (nM)); unit taken from the concentration axis
Expect pEC50 as a plain number equal to -log10 of the molar concentration.

Exercise: Given the entry hVH3-hVL3-10 (antibody, V domains shown) VH: EVQLVESGGGLVQPGGSLRLSCATSGFTLSDYYMSWVRQAPGKGLEWVGFMRNKANGYTTEYSASVRGRFTISRDTSKSSIYLQMNSLKTEDTAVYYCVRDRDGRPFAYWGQGTLVTVSS VL: DIQMTQSPSSLSASVGDRVTITCKSSQSLLNSINQKNFLTWYQQKPGKAPKLLIYWASTRESGVPSRFSGSGSGTDFTLTISSLQPEDLATYYCQNDYTYPLTFGQGTKLEIK , report its measured pEC50.
Key: 8.56

Exercise: Given the entry 10-G6-C4-B2 (human IgG1 chimeric antibody) (antibody, V domains shown, human IgG1 chimeric antibody of the mouse clone) VH: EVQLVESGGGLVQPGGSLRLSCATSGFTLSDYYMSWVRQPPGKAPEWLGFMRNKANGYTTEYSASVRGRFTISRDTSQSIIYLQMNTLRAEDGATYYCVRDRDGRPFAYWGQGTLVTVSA VL: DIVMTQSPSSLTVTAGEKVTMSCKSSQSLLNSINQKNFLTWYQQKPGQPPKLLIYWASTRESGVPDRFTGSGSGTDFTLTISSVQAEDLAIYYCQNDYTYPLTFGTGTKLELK , report its measured pEC50.
Key: 8.63

Exercise: Given the entry hVH2-hVL1-10 (antibody, V domains shown) VH: EVQLVESGGGLVQPGGSLRLSCATSGFTLSDYYMSWVRQAPGKGLEWVSFMRNKANGYTTEYSASVRGRFTISRDTSKSTIYLQMNSLRAEDTAVYYCVRDRDGRPFAYWGQGTLVTVSS VL: DIVMTQSPDSLAVSLGERATINCKSSQSLLNSINQKNFLTWYQQKPGQPPKLLIYWASTRESGVPDRFSGSGSGTDFTLTISSLQAEDLAVYYCQNDYTYPLTFGQGTKLEIK , report its measured pEC50.
Key: 8.72
